target: human USP7 full length protein (Homo sapiens, UniProt Q93009)
pIC50: −log10 of the molar value.
Criterion: pIC50 meeting or surpassing 6. Met: true (1). Not met: false (0).

[[record]]
compound = "CN1CCN(CCC(=O)Nc2ccc3c(=O)n(CC4(O)CCN(C(=O)[C@@H](CCCNC(=O)c5ccc6c(Cl)c7c(nc6c5)CCCC7)Cc5ccccc5)CC4)cnc3c2)CC1 [XL177A]"
measuredon = "human USP7 full length protein (Homo sapiens, UniProt Q93009)"
classname = "true (1)"

[[record]]
compound = "CCc1c(-c2ccc3[nH]ncc3c2)cnc(N)c1-c1ccc(O)cc1"
measuredon = "human USP7 full length protein (Homo sapiens, UniProt Q93009)"
classname = "true (1)"

[[record]]
compound = "O=C(C[C@@H](C(F)F)n1ccc(F)n1)N1CCC(O)(Cn2cnc3c(cnn3-c3ccc(F)cc3)c2=O)CC1 [FT671, reference compound]"
measuredon = "human USP7 full length protein (Homo sapiens, UniProt Q93009)"
classname = "true (1)"

[[record]]
compound = "C[C@H](CC(=O)N1CCC(O)(Cn2cnc3c(cnn3-c3ccc(F)cc3)c2=O)CC1)c1ccccc1"
measuredon = "human USP7 full length protein (Homo sapiens, UniProt Q93009)"
classname = "true (1)"

[[record]]
compound = "CC(=O)c1cc([N+](=O)[O-])c(Sc2cccc(Cl)c2Cl)s1"
measuredon = "human USP7 full length protein (Homo sapiens, UniProt Q93009)"
classname = "false (0)"


====

Molecular target: HiBiT-USP7 (Homo sapiens)
Sequence (Q93009 whole entry): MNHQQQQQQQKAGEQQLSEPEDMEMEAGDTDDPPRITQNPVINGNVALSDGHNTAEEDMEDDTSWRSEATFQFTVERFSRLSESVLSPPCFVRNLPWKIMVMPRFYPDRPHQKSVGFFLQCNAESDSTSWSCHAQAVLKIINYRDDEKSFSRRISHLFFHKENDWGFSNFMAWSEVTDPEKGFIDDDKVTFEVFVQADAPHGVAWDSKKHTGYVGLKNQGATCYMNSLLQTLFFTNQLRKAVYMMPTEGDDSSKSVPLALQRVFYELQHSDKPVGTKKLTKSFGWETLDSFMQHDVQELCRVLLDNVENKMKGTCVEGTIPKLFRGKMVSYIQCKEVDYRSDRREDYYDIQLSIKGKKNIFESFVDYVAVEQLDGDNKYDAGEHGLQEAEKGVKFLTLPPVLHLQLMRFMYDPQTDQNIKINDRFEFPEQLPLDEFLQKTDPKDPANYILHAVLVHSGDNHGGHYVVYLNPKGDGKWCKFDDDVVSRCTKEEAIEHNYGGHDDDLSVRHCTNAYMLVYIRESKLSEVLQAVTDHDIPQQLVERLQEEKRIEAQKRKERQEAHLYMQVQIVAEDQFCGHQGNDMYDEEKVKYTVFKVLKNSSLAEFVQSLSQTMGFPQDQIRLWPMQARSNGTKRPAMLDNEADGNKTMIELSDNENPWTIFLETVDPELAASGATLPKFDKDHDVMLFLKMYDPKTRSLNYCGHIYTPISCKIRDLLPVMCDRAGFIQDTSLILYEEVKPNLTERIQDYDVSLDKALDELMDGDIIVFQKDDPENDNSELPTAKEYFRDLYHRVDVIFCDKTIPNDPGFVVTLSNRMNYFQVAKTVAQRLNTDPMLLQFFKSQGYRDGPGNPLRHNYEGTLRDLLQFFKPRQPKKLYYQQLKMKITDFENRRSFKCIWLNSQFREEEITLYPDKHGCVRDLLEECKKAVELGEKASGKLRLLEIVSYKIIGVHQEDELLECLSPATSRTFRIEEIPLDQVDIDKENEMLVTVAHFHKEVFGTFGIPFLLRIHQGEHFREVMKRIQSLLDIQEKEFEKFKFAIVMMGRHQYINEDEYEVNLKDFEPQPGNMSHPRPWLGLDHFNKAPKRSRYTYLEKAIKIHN
Assay: HiBiT USP7 degradation assay, MV4-11 cells
Format: cell-based
Settings: MV4-11 HiBiT-USP7, 6 h and 24 h
Procedure: HiBiT-USP7 construct was cloned by extraction of USP7 fragment from plasmid pQHA-USP7 WT puroR (Addgene #46753) using appropriate restriction sites. The USP7 fragment was then ligated into the pRRL-PGK-HiBiT entry vector to generate the plasmid. […] The assay was performed as described previously. […] Nano-Glo HiBiT Lytic Detection System (Promega) was used for the assay and luminescence was measured on a Tecan Spark microplate reader (Tecan). […]
measuredQuantity: HiBiT-USP7 levels (in words)

[[record]]
compound = "Cc1ncsc1-c1ccc(CNC(=O)[C@@H]2C[C@@H](O)CN2C(=O)[C@@H](NC(=O)C23C4C5C2C2C3C4C52C(=O)N2CCC(C3CCN(c4ccc(-n5ncc6c(=O)n(CC7(O)CCN(C(=O)C[C@@H](C)c8ccccc8)CC7)cnc65)cc4)CC3)CC2)C(C)(C)C)cc1 (stereo partly shown)"
measuredon = "HiBiT-USP7 (Homo sapiens)"
measuredquantity = "HiBiT-USP7 levels (in words)"
endpointresult = "lower potency"

[[record]]
compound = "Cc1ncsc1-c1ccc(CNC(=O)C2CC(O)CN2C(=O)C(NC(=O)C2CCC(C(=O)N3CCN(c4ccc(-n5ncc6c(=O)n(CC7(O)CCN(C(=O)CC(C)c8ccccc8)CC7)cnc65)cc4)CC3)CC2)C(C)(C)C)cc1 (stereo not shown)"
measuredon = "HiBiT-USP7 (Homo sapiens)"
measuredquantity = "HiBiT-USP7 levels (in words)"
endpointresult = "lower potency"


Data credit: paper PMC13172357
